Numbers sourced from patent US20240043435A1.

Target: TYK2-JH2 (aa 575-869, in-house) protein (Homo sapiens)
Construct: TYK2-JH2 (aa 575-869, in-house) protein; made in house
Test: TYK2-JH2 biochemical assay (HTRF probe displacement)
Assay type: binding
Assay context: Biochemical assay; read-out: TYK2-JH2 IC50
Class field: derived from IC50; ranges one: < 0.03 nM; two: ≥ 0.03 nM and < 0.05 nM; three: ≥ 0.05 nM

Worked examples, 5 molecules total:
CC(=O)Nc1cc(Nc2cc(OC[C@@H](C)O)cc(S(C)(=O)=O)n2)c(-c2ccn(C)n2)cn1
two
COc1cc(Nc2cc(NC(C)=O)ncc2-c2ccc(F)cn2)nc(S(C)(=O)=O)c1
one
CC(=O)Nc1cc(Nc2cc(OC3CCC3)cc(S(C)(=O)=O)n2)c(-c2ccn(C)n2)cn1
one
CC(=O)Nc1cc(Nc2cc(C)cc(S(C)(=O)=O)n2)c(-c2ccc(F)cn2)cn1
three
CC(=O)Nc1cc(Nc2cc(O[C@H]3C[C@H](O)C3)cc(S(C)(=O)=O)c2)c(-c2ccc(C(F)(F)F)cn2)cn1
three

Task: Please indicate the class for CC(=O)Nc1cc(Nc2cc(C(F)(F)F)cc(S(C)(=O)=O)n2)c(-c2ccn(C)n2)cn1 based on its IC50.
Output: one

Task: Which category does the recorded IC50 put CC(=O)Nc1cc(Nc2cc(OCCO)cc(S(C)(=O)=O)n2)c(-c2ccc(OC3CCOC3)cn2)cn1 (stereo not drawn) in?
Output: one

Task: Would you mind sorting CC(=O)Nc1cc(Nc2cccc(S(C)(=O)=O)c2)c(-c2ccc(N3C[C@@H](C)O[C@@H](C)C3)cn2)cn1 into the appropriate category?
Output: two

Task: # bin lookup: classify CC(=O)Nc1cc(Nc2cc(OCC(C)O)cc(S(C)(=O)=O)n2)c(-c2ccn(C)n2)cn1 (stereo not drawn) by its IC50
Output: one

Task: Pick a category. Item: CC(=O)Nc1cc(Nc2cc(C3CCOCC3)cc(S(C)(=O)=O)n2)c(-c2ccc3c(n2)OCC(C)(C)O3)cn1
Output: one

Task: Entry COCCOc1cc(Nc2cc(NC(C)=O)ncc2-c2ccc(C(F)(F)F)cn2)cc(S(C)(=O)=O)c1 belongs to which category?
Output: three

Task: Lab log: CC(=O)Nc1cc(Nc2cccc(S(C)(=O)=O)n2)c(-c2ccn(C3CC3)n2)cn1 — assign IC50 category
Output: three

Task: In plain terms, what class is CC(=O)Nc1cc(Nc2nc(S(C)(=O)=O)cn(C)c2=O)c(-c2ccc3c(n2)OCC(C)(C)O3)cn1 ?
Output: two

Task: Which class holds COCCOc1ccc(-c2cnc(NC(C)=O)cc2Nc2cc(C)cc(S(C)(=O)=O)n2)nc1 ?
Output: two

---

Test system: pSTAT5/GM-CSF
Test: pSTAT5/GM-CSF cellular assay (JAK2 selectivity)
Assay type: cell-based
Recorded endpoint: IC50

Consider the worked cases shown below.
CC(=O)Nc1cc(Nc2cccc(S(C)(=O)=O)c2)c(-c2ccc(N3C[C@@H](C)O[C@@H](C)C3)cn2)cn1
> 10 µM
CC(=O)Nc1cc(Nc2cc(OC(C)C)cc(S(C)(=O)=O)n2)c(-c2ccn(C3CC3)n2)cn1
> 10 µM

Task: Name the recorded IC50 of the compound listed here: COCCOc1ccc(-c2cnc(NC(C)=O)cc2Nc2cc(OC(C)C)cc(S(C)(=O)=O)n2)nc1
Output: > 10 µM

Task: Identify measured IC50 associated with CC(=O)Nc1cc(Nc2cccc(S(=O)(=O)C(C)C)n2)c(-c2ccn(C)n2)cn1
Output: > 10 µM

Task: Tell me IC50 reported for COCc1cc(Nc2cc(NC(C)=O)ncc2-c2ccc(C(C)(C)O)cn2)nc(S(C)(=O)=O)c1
Output: 4.08 µM

Task: Name the recorded IC50 of the item CC(=O)Nc1cc(Nc2cc(OC(C)C)cc(S(C)(=O)=O)n2)c(-c2cc3c(cn2)NCCO3)cn1 in your answer.
Output: > 10 µM

Task: Respond only with IC50 recorded for CC(=O)Nc1cc(Nc2cc(OCC3CC3)cc(S(C)(=O)=O)c2)c(-c2ccc(N3C[C@@H](C)O[C@@H](C)C3)cn2)cn1
Output: > 10 µM

Task: Quickly give me recorded IC50 for CC(=O)Nc1cc(Nc2cc(C)cc(S(C)(=O)=O)n2)c(-c2ccc(C(F)(F)F)cn2)cn1
Output: > 10 µM

Task: Respond only with IC50 recorded for COC1CCN(c2cc(Nc3cc(NC(C)=O)ncc3-c3ccc4c(n3)OCC(C)(C)O4)nc(S(C)(=O)=O)c2)CC1
Output: 3.42 µM

Task: Quote IC50 reported for CO[C@H]1CCCN(c2cc(Nc3cc(NC(C)=O)ncc3-c3ccc4c(n3)OCC(C)(C)O4)nc(S(C)(=O)=O)c2)C1 please.
Output: 1.64 µM

Task: For CC(=O)Nc1cc(Nc2cc(C#N)cc(S(C)(=O)=O)c2)c(-c2ccn(C)n2)cn1 , write its IC50.
Output: > 10 µM

Task: Fill in IC50 for record COCCOc1cc(Nc2cc(NC(C)=O)ncc2-c2ccc(C(C)(C)O)cn2)nc(S(C)(=O)=O)c1
Output: 8.87 µM

Task: Note down IC50 recorded for CC(=O)Nc1cc(Nc2cccc(S(N)(=O)=O)n2)c(-c2ccn(C)n2)cn1
Output: > 10 µM

Task: Please look at this compound and report its IC50: COCCOc1cc(Nc2cc(NC(C)=O)ncc2-c2ccc(C(F)(F)F)cn2)nc(S(C)(=O)=O)c1
Output: > 10 µM

Task: In one line, give reported IC50 of the entry CC(=O)Nc1cc(Nc2cc(-c3cnccc3C#N)cc(S(C)(=O)=O)n2)c(-c2ccc3c(n2)OCC(C)(C)O3)cn1 .
Output: > 10 µM

---

Target: TYK2-JH2 (aa 575-869, in-house) protein (Homo sapiens, UniProt P29597)
Construct: TYK2-JH2 (aa 575-869, in-house) protein; made in house
Sequence (P29597 575-869): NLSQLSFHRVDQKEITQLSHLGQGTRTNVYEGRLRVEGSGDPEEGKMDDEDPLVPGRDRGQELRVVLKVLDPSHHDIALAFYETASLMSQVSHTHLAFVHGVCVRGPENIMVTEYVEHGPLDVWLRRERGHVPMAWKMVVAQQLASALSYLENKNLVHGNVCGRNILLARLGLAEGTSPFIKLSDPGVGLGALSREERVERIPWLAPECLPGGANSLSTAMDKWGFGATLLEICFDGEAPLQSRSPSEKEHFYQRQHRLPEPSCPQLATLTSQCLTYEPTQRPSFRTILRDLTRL
Test: TYK2-JH2 biochemical assay (HTRF probe displacement)
Type: binding
Assay context: Biochemical assay; read-out: TYK2-JH2 IC50
pIC50: −log10 of the molar value.
Each entry gets n if its pIC50 stays under 10, and y if its pIC50 is 10 or above.

Task: # check: pIC50 of COc1cccc(Nc2cc(NC(C)=O)ncc2-c2ccccn2)c1 is greater than or equal to 10
Output: n

Task: Quick check: does COCCOc1cc(Nc2cc(NC(C)=O)ncc2-c2cc3c(cn2)OCCO3)nc(S(C)(=O)=O)c1 have pIC50 greater than or equal to 10?
Output: y

Task: Check if pIC50 >= 10 (inclusive). Item: CC(=O)Nc1cc(Nc2cc(OCCO)cc(S(C)(=O)=O)n2)c(-c2ccc(C(F)(F)F)cn2)cn1
Output: y

Task: Reported pIC50 at or above 10? CC(=O)Nc1cc(Nc2cc(S(C)(=O)=O)ccc2C)c(-c2ccc(C(C)(C)O)cn2)cn1
Output: y

Task: Check this molecule for pIC50 at or above 10: COCc1ccnc(-c2cnc(NC(C)=O)cc2Nc2cccc(S(C)(=O)=O)n2)c1
Output: y

Task: Check if pIC50 >= 10 (inclusive). Item: COc1ccc(-c2cnc(NC(C)=O)cc2Nc2nc(S(C)(=O)=O)cc3c2OCO3)nn1
Output: y

Task: Given the entry CC(=O)Nc1cc(Nc2cc(OCCO)cc(S(C)(=O)=O)n2)c(-c2ccc(C(C)(C)O)cn2)cn1 , answer whether its pIC50 meets or surpasses 10.
Output: y

Task: Reported pIC50 reaches at least 10 for CC(=O)Nc1cc(Nc2cc(C(F)(F)F)cc(S(C)(=O)=O)c2)c(-c2ccc(C(C)(C)O)cn2)cn1 ?
Output: y

Task: hey, is pIC50 for this one >= 10? CC(=O)Nc1cc(Nc2ncccc2S(C)(=O)=O)c(-c2ccccn2)cn1
Output: n

---

Test system: JAK2, TYK2/p-STAT4 (Tyr693) activated by IL-12 in NK-92 cell line
Test: IL-12-JAK2, TYK2/p-STAT4 (Tyr693) inhibition IC50 cellular assay
Assay type: cell-based
Assay context: Cellular assay; pSTAT5/GM-CSF IC50 vs pSTAT4/IL-12 IC50
Recorded endpoint: Selectivity fold (TYK2/JAK2)

# count of solved cases: 3
[2H]C([2H])([2H])Oc1cc(Nc2cc(NC(C)=O)ncc2-c2ccc(F)cn2)nc(S(C)(=O)=O)c1
>12195 fold
COC1CC(Oc2cc(Nc3cc(NC(C)=O)ncc3-c3ccc(C(C)(C)O)cn3)nc(S(C)(=O)=O)c2)C1 (stereo not shown)
4797 fold
COCc1ccc(-c2cnc(NC(C)=O)cc2Nc2cc(OC(C)C)cc(S(C)(=O)=O)n2)nc1
>18656 fold

# evaluate next
Task: For the molecule COc1ccc(-c2cnc(NC(C)=O)cc2Nc2cc(N3C[C@@H](C)O[C@@H](C)C3)cc(S(C)(=O)=O)n2)nn1 , give its measured Selectivity fold (TYK2/JAK2) value.
Output: >4761 fold
